Biological target: T1, rat PrRP receptor in RC-4B/C cells (rat, UniProt Q64121 1-370)
T1 construct: whole, on cells; endogenous receptor of RC-4B/C cells (ATCC); also called rat receptor; GPR10 receptor expressed in rat hypophyseal cells
T1 sequence (looked up): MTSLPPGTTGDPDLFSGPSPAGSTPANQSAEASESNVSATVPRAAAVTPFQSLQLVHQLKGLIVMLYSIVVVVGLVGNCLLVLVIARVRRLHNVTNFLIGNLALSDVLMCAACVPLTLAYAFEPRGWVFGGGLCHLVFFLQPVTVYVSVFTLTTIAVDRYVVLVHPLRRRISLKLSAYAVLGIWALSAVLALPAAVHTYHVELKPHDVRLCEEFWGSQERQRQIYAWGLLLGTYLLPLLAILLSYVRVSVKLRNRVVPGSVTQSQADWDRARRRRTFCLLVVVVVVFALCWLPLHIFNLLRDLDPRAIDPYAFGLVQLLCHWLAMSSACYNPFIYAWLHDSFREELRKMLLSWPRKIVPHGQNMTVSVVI
Test: competition with 125I-rat PrRP31, RC-4B/C cells
pKi: −log10 of the molar value. Square brackets hold non-standard residues; d marks the D form. Side chains are listed from the residue outwards. Ends that are not written are not given here. * marks the point of attachment. 1Nal = N[C@@H](Cc1cccc2ccccc12)C(=O)O; Palmitoyl = CCCCCCCCCCCCCCCC(=O)*; Myristoyl = CCCCCCCCCCCCCC(=O)*; PheNO2 = nitrophenylalanine; Nle = CCCC[C@H](N)C(=O)O; GABA = NCCCC(=O)O
readout-type: pKi

Prompt: Which pKi is reported for this binder? SRAHQHS[Nle]ETRTPDINPAWYTGRGIRPVGRF-NH2 [analog no. 3]
Response: 8.89

a. SRTHRHSMEIKTPDINPAWYASRGIRPVGRF-NH2 (not fully specified (residue 11)) [analog no. 57]
b. SRTHRHSMEIK([GABA-Palmitoyl])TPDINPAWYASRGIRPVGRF-NH2 [analog no. 53]
c. Myristoyl-SRAHQHS[Nle]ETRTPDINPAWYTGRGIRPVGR[1Nal]-NH2 [analog no. 11]
d. SRAHQHS[Nle]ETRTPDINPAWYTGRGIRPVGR[PheNO2]-NH2 [analog no. 16]
Prompt: Hello, I need these entries ordered by pKi, highest reading first. Thanks! Thanks in advance for listing the labels in the requested order.
Response: a, b, c, d
